Here, each record is paired with measured pIC50 data.
- test target: Recombinant ROCK2 (amino acids 5-554) (Homo sapiens, UniProt O75116)
- Construct: ROCK2 (amino acids 5-554); by word order, ROCK2 from SignalChem
- Sequence (O75116 5-554): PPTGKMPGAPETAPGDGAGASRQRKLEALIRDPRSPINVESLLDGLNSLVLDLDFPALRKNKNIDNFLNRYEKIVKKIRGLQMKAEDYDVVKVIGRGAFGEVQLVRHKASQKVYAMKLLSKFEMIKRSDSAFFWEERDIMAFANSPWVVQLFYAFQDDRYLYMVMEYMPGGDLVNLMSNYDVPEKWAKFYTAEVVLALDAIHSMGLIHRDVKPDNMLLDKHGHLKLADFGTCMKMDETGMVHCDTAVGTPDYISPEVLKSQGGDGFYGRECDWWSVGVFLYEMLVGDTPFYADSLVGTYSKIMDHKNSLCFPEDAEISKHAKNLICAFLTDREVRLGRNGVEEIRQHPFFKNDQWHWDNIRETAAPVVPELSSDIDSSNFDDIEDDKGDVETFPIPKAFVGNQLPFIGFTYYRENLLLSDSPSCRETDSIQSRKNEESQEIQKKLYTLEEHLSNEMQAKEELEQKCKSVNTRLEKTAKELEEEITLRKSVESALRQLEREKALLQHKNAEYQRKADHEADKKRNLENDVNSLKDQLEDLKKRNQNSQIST
- test method notes: ROCK inhibition assay, LANCE Ultra TR-FRET kinase assay (ROCK2)
- measurement conditions: 4 μM ATP, 50 nM ULight-CREBtide substrate
- Method: Kinase IC50 was determined through an in vitro assay based on LANCE Ultra TR-FRET (Time-Resolved Fluorescence Resonance Energy Transfer) homogeneous technologies method (Perkin Elmer). […] Compound activities were measured by Envision and IC50s were calculated. […] The reaction was incubated for 1 hour, and the signal was read in Envision in TR-FRET mode (excitation at 320 nm and emission at 615/665 nm). […]
pIC50: −log10 of the molar value.

Below, 5 compounds whose answers are already recorded.
INSERT INTO measurements (compound, reported) VALUES
  ('COc1cccc(Cn2ccc3cc(-c4c[nH]nc4C(F)(F)F)ccc3c2=O)c1', '> 8.00'),
  ('Cc1nocc1-c1ccc2c(=O)n(Cc3cccc(C(=O)NCCN4CCN(C)CC4)c3)ccc2c1', '> 8.00'),
  ('NCC(c1cccc(Cl)c1)n1cnc2cc(-c3ccnc(N)c3)ccc2c1=O (centres unmarked)', '> 8.00'),
  ('CN1CC(CNC(=O)c2cccc(Cn3ccc4cc(-c5ccnn5C)ccc4c3=O)c2)C1 [Compound 113]', '> 8.00'),
  ('CO[C@H]1CC[C@H](NC(=O)c2cc(F)cc(Cn3ccc4cc(-c5conc5C)ccc4c3=O)c2)CC1', '6.30 to 7.00');

query: Indicate its recorded pIC50; the compound in question is `Cn1nccc1-c1ccc2c(=O)n(Cc3cccc(C(=O)NCc4ccnc(F)c4)c3)ccc2c1`
result: 7.00 to 8.00

query: Indicate its recorded pIC50; the compound in question is `COc1cccc(Cn2ccc3cc(-c4c[nH]nc4C(F)F)ccc3c2=O)c1`
result: > 8.00

query: Indicate its recorded pIC50; the compound in question is `O=c1c2ccc(-c3cn[nH]c3)cc2ccn1Cc1cccc(O)c1`
result: 7.00 to 8.00

###

- Test system: ROCK1/2 in A7r5 cells (pMLC2 levels)
- test method notes: Inhibition of ROCK1/2 in A7r5 cells, cell-based ELISA of phospho-myosin light chain (pMLC2, Thr18/Ser19)
- measurement conditions: Rattus norvegicus, 1.5 h, treated with test compounds for 90 minutes, read-out: pMLC2 (cellular EC50)
pEC50: −log10 of the molar value.
Here, each record is paired with measured pEC50 data.

Below, 5 molecules whose answers are already recorded.
INSERT INTO assay_data (input_smiles, measured_property, reported) VALUES
  ('CNC(=O)c1cc(F)cc(Cn2ccc3cc(-c4ccnn4C)ccc3c2=O)c1', 'pEC50', '6.30 to 7.00'),
  ('Nc1cc(-c2ccc3c(=O)n(Cc4cccc(C(=O)NCc5ccccc5CO)c4)ccc3c2)ccn1', 'pEC50', '> 7.00'),
  ('CNC(=O)c1cc(F)cc(Cn2ccc3cc(-c4cn[nH]c4C(F)(F)F)ccc3c2=O)c1', 'pEC50', '6.30 to 7.00'),
  ('COc1cccc(Cn2ccc3cc(-c4ccnc(N)c4)ccc3c2=O)c1', 'pEC50', '6.30 to 7.00'),
  ('Cc1nocc1-c1ccc2c(=O)n(Cc3cccc(O)c3)ccc2c1', 'pEC50', '> 7.00');

Please look at the following molecule next.
query: Indicate its recorded pEC50; the molecule in question is `Cn1nccc1-c1ccc2c(=O)n(Cc3cc(F)cc(C(=O)N[C@H]4CC[C@@H](O)CC4)c3)ccc2c1`
result: 6.00 to 6.30
